# Test system: CCRIS mutagenicity, Ames/micronucleus/aberration tests
# assay-name: CCRIS mutagenicity studies
# condition-details: Test System: AMES SALMONELLA TYPHIMURIUM; Strain/Indicator: TA102; Metabolic Activation: NONE; Method: STANDARD PLATE
Active and inactive are the calls of the source. No rule for the calls is given here.
Labels: active, inactive

molecule	class-assignment
O=C1c2ccccc2C(=O)N1SC1CCCCC1	inactive
COP(=S)(OC)Oc1ccc([N+](=O)[O-])c(C)c1	inactive
CC1(c2ccccc2)C(=O)c2ccccc2N1[O] (centres undefined)	inactive
COC(=O)Nc1nc2ccccc2[nH]1	inactive
CNCCCC(=O)O	inactive
CCn1cc(C(=O)O)c(=O)c2cc(F)c(N3CCNCC3)cc21	active
CC(C)=CCC/C(C)=C/C=O	inactive
Cc1ccc(C)c(C)c1	inactive
NC(=O)NCC(=O)O	inactive
C=C(C)C(=O)OCCOCCOCCOC(=O)C(=C)C	inactive
Cc1c(N(C)C)c(=O)n(-c2ccccc2)n1C	inactive
Cc1ccccc1N	inactive
N#[N+]c1ccc(CO)cc1	active
ClC1=C(Cl)[C@]2(Cl)[C@@H]3[C@H]4C[C@H]([C@@H]5O[C@H]45)[C@@H]3[C@@]1(Cl)C2(Cl)Cl	inactive

----------
# Tested on: CCRIS mutagenicity, Ames/micronucleus/aberration tests
# assay-name: CCRIS mutagenicity studies
# condition-details: Test System: AMES SALMONELLA TYPHIMURIUM; Strain/Indicator: TA98(1,8-DNP6); Metabolic Activation: NONE; Method: STANDARD PLATE
The source made the active and inactive calls. How the calls were made is not given here.
recorded-endpoint: mutagenic call

O=[N+]([O-])c1ccc2ccc3c4c(cc5ccc1c2c53)C=CCC4 active; positive
O=[N+]([O-])c1ccc2c3c4c(cccc4c4ccccc4c13)[C@H](O)[C@H]2O active; positive
O=[N+]([O-])c1ccc2ccc3cc4c(c5ccc1c2c35)C=CCC4 active; positive
Nc1ccc(-c2ccc(N)c([N+](=O)[O-])c2)cc1 active; positive
Cn1c(N=[N+]=[N-])nc2ccc3ccccc3c21 active; positive

----------
# Test system: CCRIS mutagenicity, Ames/micronucleus/aberration tests
# assay-name: CCRIS mutagenicity studies
# condition-details: Test System: Ames Salmonella typhimurium; Strain/Indicator: TA98; Metabolic Activation: None; Method: Preincubation
Active and inactive are the calls of the source. The rule behind the calls is not given here.
Outcome codes: active, inactive

compound	class-assignment
Nc1ccc(O)c2c1C(O)=CC(=O)C2=O	active
N#CCCC(Br)(C#N)CBr (stereo not given)	inactive
CC(C)CO	inactive
O=C(O)CCCl	inactive
CCN(CC[N+](C)(C)C)c1ccc(N=Nc2ccc([N+](=O)[O-])cc2Cl)cc1	active
O=C([O-])c1ccccn1.O=C([O-])c1ccccn1.O=C([O-])c1ccccn1.[Cr+3]	inactive
C=COC(C)=O	inactive
C=CC1=C(C)/C(=C/c2[nH]c(Cc3[nH]c(/C=C4\NC(=O)C(C)=C4C=C)c(C)c3CCC(=O)O)c(CCC(=O)O)c2C)NC1=O	inactive
NC=O	inactive
CNc1ccc2nc3ccc(=[N+](C)C)cc-3sc2c1	active
CNc1ccc(O)c2c1C(=O)c1c(O)ccc(NC)c1C2=O	active
CC(=O)Nc1ccc(N/N=C2/C(=O)c3ccc(NC(=O)Nc4ccc5c(c4)C=C(S(=O)(=O)O)/C(=N/Nc4ccccc4)C5=O)cc3C=C2S(=O)(=O)O)cc1	active
CC(=O)CC(=O)Nc1ccccc1C	inactive
C1N2CN3CN1CN(C2)C3	inactive
CCCCNC(=O)c1cc(N)ccc1Oc1ccccc1	inactive

----------
# Tested on: CCRIS mutagenicity, Ames/micronucleus/aberration tests
# assay-name: CCRIS mutagenicity studies
# condition-details: Test System: AMES SALMONELLA TYPHIMURIUM; Strain/Indicator: TA1537; Metabolic Activation: NONE; Method: STANDARD PLATE
Activity calls are given as the source filed them. The rule behind the calls is not given here.
Possible outcomes: T = active, F = inactive

compound	class-assignment
Cc1ccccc1N	F
Oc1ccc(O)c2c(O)c3ccccc3c(O)c12	T
CC(=O)OCC1=CO[C@@H](OC(=O)CC(C)C)[C@H]2C1=C[C@H](OC(=O)CC(C)C)[C@]21CO1	F
Cc1cc(N)c([N+](=O)[O-])cc1N	F
O=C(C(=O)c1ccccc1)c1ccccc1	F
N=C1C=CC(=C(c2ccc(N)cc2)c2ccc(N)cc2)C=C1	F
CN(C)N=Nc1ccc([N+](=O)[O-])cc1	T
CC(C)CON=O	F
NC[C@H]1CCCN1.O=C([O-])C1(C(=O)[O-])CCC1.[Pt+2]	F
O=c1c(Cl)c(Cl)cnn1S(=O)(=O)c1ccc(Cl)cc1Cl	F
C(CCC1CO1)CC1CO1 (stereo not given)	F
CCN(CC[N+](C)(C)C)c1ccc(N=Nc2ccc([N+](=O)[O-])cc2Cl)cc1	T
CCCCC(CC)COP(=O)(OCC(CC)CCCC)OCC(CC)CCCC (stereo not given)	F
O=C([O-])c1ccccn1.O=C([O-])c1ccccn1.O=C([O-])c1ccccn1.[Cr+3]	F
O=C1c2ccc3nc(-c4ccccc4)sc3c2C(=O)c2ccc3nc(-c4ccccc4)sc3c21	F
O=c1oc2cc([N+](=O)[O-])ccc2c2ccccc12	T
CN(C)CCNC(=O)c1cccc2nc(-c3ccccc3)oc12	F
[N-]=[N+]=Nc1ccc2c(Nc3ccc(NS(=O)(=O)CCCN)cc3)c3cc(N=[N+]=[N-])ccc3nc2c1	T
Nc1nc2n[nH]nc2c(=O)[nH]1	F
Nc1ccc(S(=O)(=O)Nc2cnc3c(Cl)cccc3n2)cc1	F
Nc1ccn([C@@H]2O[C@H](CO)[C@@H](O)C2O)c(=O)n1 (stereo not given in full)	F
O=C1[C@H]2CC=CC[C@H]2C(=O)N1SC(Cl)(Cl)Cl	T
O=C(O)C(Cl)Cl	F
CC(=O)Nc1ccc(O)cc1	F
Nc1ccc2cc3ccccc3cc2c1	F

----------
# Test system: CCRIS mutagenicity, Ames/micronucleus/aberration tests
# assay-name: CCRIS mutagenicity studies
# condition-details: Test System: AMES SALMONELLA TYPHIMURIUM; Strain/Indicator: TA1535; Metabolic Activation: RAT LIVER S-9, PHENOBARBITAL AND BETA-NAPHTHOFLAVONE; Method: PREINCUBATION
Calls of active or inactive are those of the source. How the calls were made is not given here.
Possible outcomes: 1 (yes) (active), 0 (no) (inactive)

molecule	target-desc	class-assignment
Nc1ccc(C=O)cc1	CCRIS mutagenicity, Ames/micronucleus/aberration tests	0 (no)
Sc1ccccc1	CCRIS mutagenicity, Ames/micronucleus/aberration tests	0 (no)
O=C(S)c1ccccc1	CCRIS mutagenicity, Ames/micronucleus/aberration tests	0 (no)
c1ccc(C2CO2)cc1 (stereo not drawn)	CCRIS mutagenicity, Ames/micronucleus/aberration tests	1 (yes)
COC(=O)CC(=O)OC	CCRIS mutagenicity, Ames/micronucleus/aberration tests	0 (no)
C1CC[C@H]2O[C@H]2C1	CCRIS mutagenicity, Ames/micronucleus/aberration tests	1 (yes)
Nc1ccc(Oc2ccc(N)cc2)cc1	CCRIS mutagenicity, Ames/micronucleus/aberration tests	0 (no)
[Cl][Mn][Cl]	CCRIS mutagenicity, Ames/micronucleus/aberration tests	0 (no)
NCCO	CCRIS mutagenicity, Ames/micronucleus/aberration tests	0 (no)
CCN1CCNC(=O)C1=O	CCRIS mutagenicity, Ames/micronucleus/aberration tests	0 (no)
O.O.O.O.O.O.[Cl-].[Cl-].[Ni+2]	CCRIS mutagenicity, Ames/micronucleus/aberration tests	0 (no)
CC=O	CCRIS mutagenicity, Ames/micronucleus/aberration tests	0 (no)
BrCCCCBr	CCRIS mutagenicity, Ames/micronucleus/aberration tests	1 (yes)

----------
# Test system: CCRIS mutagenicity, Ames/micronucleus/aberration tests
# assay-name: CCRIS mutagenicity studies
# condition-details: Test System: AMES SALMONELLA TYPHIMURIUM; Strain/Indicator: TA104; Metabolic Activation: NONE; Method: PREINCUBATION
The source made the active and inactive calls. No rule for the calls is given here.
Outcomes: true (active), false (inactive)

O=C/C=C\C=O true
Cc1ccccc1N false
Oc1ccc2ccc3c4ccc5ccccc5c4c4c(c3c2c1O)O4 true
CCn1cc(C(=O)O)c(=O)c2cnc(N3CCNCC3)nc21 false
O=C(S)c1ccccc1 false
O=[N+]([O-])c1ccc(O)c([N+](=O)[O-])c1 false
CCn1cc(C(=O)O)c(=O)c2cc(F)c(N3CCNCC3)cc21 true
O=C/C=C/C=C/C=O false
O=CC=O true
O=C(O)/C=C(\CCl)C(Cl)Cl false
CC(=O)C(C)=O true
O=C(O)C(Cl)=C(C(Cl)Cl)C(Cl)Cl true
CC(=O)C=O true
CNC(=O)NC false
C/C(C(=O)O)=C(\Cl)C(=O)O false
CCC=O false
O=C(O)Cc1ccccc1Cl false

----------
# Tested on: CCRIS mutagenicity, Ames/micronucleus/aberration tests
# assay-name: CCRIS mutagenicity studies
# condition-details: Test System: MOUSE LYMPHOMA; Strain/Indicator: L5178Y (TK+/TK-); Metabolic Activation: RAT, LIVER, S-9; Method: SUSPENSION/PLATE
Active and inactive are the calls of the source. How the calls were made is not given here.
Labels: YES (active), NO (inactive)

C[Si](C)(C)Cl NO
Nc1ncn([C@@H]2O[C@H](CO)[C@@H](O)[C@H]2O)c(=O)n1 YES
O=C(O)CN(CC(=O)O)CC(=O)O NO
Cc1ccccc1N NO
Cl YES
